test system: MDA-N; experiment: NCI tumour cell line growth inhibition, 48 h
The source made the active and inactive calls. Cut-off read from the data, not from the text of the source: active = GI50 up to about 1.1 µM and inactive = higher.
Experimental Endpoint: GI50

Guide cases for GI50, answers given:
OC(COc1ccc(Cl)cc1Cl)CN1CCCC1 (stereo not drawn) = 56.6 µM (inactive)
C[Si](C)(C)OC1c2[nH]c3ccccc3c2CN2C(=O)CCC12 (stereo not drawn) = > 100 µM (inactive)

Attention now shifts to the item below.
GI50 of CCOC(=O)NC(C(=O)OCC)C(F)(F)F (stereo not drawn) , assay on MDA-N, is > 100 µM (inactive)

###

system: UACC-257; test: NCI tumour cell line growth inhibition, 48 h
Activity calls are given as the source filed them. Cut-off read from the data, not from the text of the source: active = GI50 up to about 1.1 µM and inactive = higher.
Experimental Endpoint: GI50

CN1c2ccccc2C(=O)NC12CCN(CCCC(=O)c1ccc(F)cc1)CC2 = 29 µM (inactive)
CC(=O)c1c2c(c3ccccc3c1O)O[C@@H]1OCC[C@H]21 = > 100 µM (inactive)

Query compound follows.
Record O=C(c1ccccc1)C(C(=O)c1ccccc1)C1(O)C(=O)c2ccccc2C1=O ; system UACC-257; GI50 = 38.4 µM (inactive)

###

tested on: SW-620; test: NCI tumour cell line growth inhibition, 48 h
Activity calls are given as the source filed them. Cut-off read from the data, not from the text of the source: active = GI50 up to about 1.1 µM and inactive = higher.
Experimental Endpoint: GI50

Here's what some known entries look like.
O=C1OC(C2(O)OC(=O)c3ccccc32)c2ccccc21 (stereo not given) = > 100 µM (inactive)
CC1CC/C(=C\c2ccc(Cl)cc2)C2OC(N)=C(C#N)C(c3ccc(Cl)cc3)=C12 (stereo not given) = 21.4 µM (inactive)
N#CC(c1ccccc1)N(CCc1ccccc1)C(=O)c1ccc(C(=O)N(CCc2ccccc2)C(C#N)c2ccccc2)cc1 (stereo not given) = 22.9 µM (inactive)

The reported GI50 value, SW-620, for O=C1N/C(=N/N=C/C(O)C(O)C(O)CO)N/C1=C\c1c[nH]c2ccccc12 (stereo not given) reads > 100 µM (inactive)

Measured on SW-620, CCn1c2ccccc2c2cc(NC(=O)c3c(C)nc(O)nc3NCCNCCO)ccc21 has a documented GI50 of > 100 µM (inactive)

###

The reader will find reported GI50 values listed item by item below.
tested on: SNB-19; assay: NCI tumour cell line growth inhibition, 48 h
Activity calls are given as the source filed them. Rule as the data show it: active = GI50 up to about 1.1 µM and inactive = higher.

O=[N+]([O-])c1ccc(C2=NN(c3ccccc3)C[N+](c3ccc(Br)cc3)=N2)cc1 = > 100 µM (inactive)
CC1OC(OC2C(O)COC(OC3C(C)OC(OC4C(OC(=O)[C@]56CCC(C)(C)C[C@@H]5C5=CCC7[C@@]8(C)C[C@H](O)[C@H](OC9OC(CO)C(O)C(O)C9O)[C@@](C)(CO)[C@@H]8CC[C@@]7(C)[C@]5(C)CC6)OCC(O)C4O)C(O)C3OC3OCC(O)C(O)C3O)C2O)C(O)C(O)C1O (stereo partly drawn) = 19.1 µM (inactive)
COc1ccc(O)c(C(=O)CCC(=O)O)c1 = > 100 µM (inactive)
COc1ccc2[nH]c3cc4c(=O)c5cc(OC)ccc5[nH]c4cc3c(=O)c2c1 = > 100 µM (inactive)
CC(=O)CCC(=O)CC(O)(C(F)(F)F)C(F)(F)F = 15.9 µM (inactive)

Query CN1C(=O)N(C)C2(O)c3ccccc3C(=O)C12O (stereo not drawn) yields GI50 of > 100 µM (inactive)

The reported value for CC(C)c1cccc(C(C)C)c1/N=C(/N)C#N in terms of GI50 is > 100 µM (inactive)

Lab book: GI50 of O=C1c2ccccc2CC12Cc1ccc3c(c1C2)CCC3 (stereo not drawn) noted as 48.1 µM (inactive)

Record C=C=C(C(=O)OC)[S+]([O-])c1ccc([N+](=O)[O-])cc1[N+](=O)[O-] (stereo not drawn) , field GI50: 56 µM (inactive)

// COC(=O)C(=O)C(C(=O)C=C(C)C)C(=O)C(=O)Nc1nc2ccc([N+](=O)[O-])cc2s1 (stereo not drawn) : GI50 value = > 100 µM (inactive)

Memo: C=C1C(O)C23CCC4C(C(=O)O)(C(=O)O)CC(OC5OC(CO)C(O)C(OC(=O)CCc6ccccc6)C5NC(=O)CC(C)C)CC4(C)C2CCC1(O)C3 (stereo not drawn) , reported GI50: > 100 µM (inactive)

# GI50 (molecule: CCN1C(Cl)=NS(=O)(=O)c2ccccc21 ) is 35.5 µM (inactive)

Record summary for NNC(=O)CCc1ccc2ccc3ccccc3c2c1 : reported GI50 = 85.7 µM (inactive)

According to the records, this molecule CN(C)c1nc(N(C)C)nc(N(C)C)n1 displays GI50 of > 144 µM (inactive)

Given item CCOC(=O)Cn1c(=O)c2cc(C)cc3c(Cl)nc4c(OC)c(OC)cc1c4c32 , the value recorded as its GI50 is > 100 µM (inactive)

Lookup result for CCCCCC(C/C=N/N(C)C)C(O)(C(F)(F)F)C(F)(F)F (stereo not drawn) ; measured GI50: 37 µM (inactive)

Record O=C1C=CC(=O)c2c1ccc1c3ccccc3n(-c3ccccc3[N+](=O)[O-])c21 . Reported GI50: 9.84 µM (inactive)

###

system: IGROV-1; experiment: NCI tumour cell line growth inhibition, 48 h
The source made the active and inactive calls. No stated cut-off is given here; in the data, active = GI50 up to about 1.1 µM and inactive = higher.
# GI50 per entry

Use these answered entries as a reference point.
COC1OC(C)/C(=N/O)C2OC(C)(C)OC12 (stereo unspecified) = > 100 µM (inactive)
COc1cccc2c1CCc1sc(CN3CCN(C)CC3)nc1-2 = > 100 µM (inactive)
COC(=O)CCC(C)C1CCC2C3CCC4CC5CCC4(C)C3(O5)C(Br)C(Br)C12C (stereo unspecified) = > 100 µM (inactive)
O=C1/C(=C/c2ccc3c(c2)OCO3)SC2C=Nc3ccccc3N12 (stereo unspecified) = > 100 µM (inactive)
CC1(C)/C(=N\Nc2ccc([N+](=O)[O-])cc2[N+](=O)[O-])C2CCC1C2 (stereo unspecified) = > 100 µM (inactive)
Oc1ccc(/C=N/NC(=S)Nc2cccnc2)nc1 = 14.7 µM (inactive)
C[C@@H]1C(=O)CC2(O)[C@@]13C[C@@H](OC(=O)[C@@H]3O)[C@@H](C)[C@@]21COC1=O (stereo partly specified) = > 100 µM (inactive)
O=C(Nc1cccc(C(F)(F)F)c1)C(=O)C(C(=O)c1ccc2ccccc2c1)C1OC(=O)c2ccccc21 (stereo unspecified) = 18.2 µM (inactive)
COc1ccc(N(C)Sc2ccccc2)cc1 = 19.9 µM (inactive)
Clc1ccc2c(c1)[nH]c1c2nc2ccccn21 = 40.8 µM (inactive)

What the record says about C=C1C2CCC3C4(C)CCCC(C)(C(=O)O)C4CCC3(C2)C1OC(=O)/C(C)=C/C (stereo unspecified) : GI50 is 27.1 µM (inactive)

Reported GI50 ( C/C(CCn1[nH]c(=O)ccc1=O)=N\N=C(N)N ) = > 100 µM (inactive)

Short answer for CCCCc1ccc(Nc2nc(Cl)c3c(ncn3C3CC(Oc4ccc(C)cc4)C(COc4ccc(C)cc4)O3)n2)cc1 (stereo unspecified) : GI50 was > 100 µM (inactive)

###

system: SK-OV-3; assay: NCI tumour cell line growth inhibition, 48 h
The source made the active and inactive calls. Rule as the data show it: active = GI50 up to about 1.1 µM and inactive = higher.
Each record here notes measured GI50.

O=C1C=Cc2c1csc2Br = > 100 µM (inactive)
C=C=C(C(=O)OC)[S+]([O-])c1ccc([N+](=O)[O-])cc1[N+](=O)[O-] (stereo unspecified) = > 84.7 µM (inactive)
C1C2CC3CC1CC(c1nn4c(C56CC7CC(CC(C7)C5)C6)nnc4s1)(C2)C3 = > 100 µM (inactive)
O=C(/C=C/c1ccccc1)N1CCCCC1 = > 100 µM (inactive)

// GI50 (SK-OV-3) for C/C(=C\COP(=O)(O)OP(=O)(O)O)CCCCCCOCc1ccccc1 = > 100 µM (inactive)

Field GI50 (SK-OV-3), entry [O-][S+]1CSCS1 (stereo unspecified) : > 100 µM (inactive)

###

tested on: T47D; test: NCI tumour cell line growth inhibition, 48 h
Calls of active or inactive are those of the source. Rule as the data show it: active = GI50 up to about 1.1 µM and inactive = higher.
Experimental Endpoint: GI50

These solved cases illustrate the format of a correct answer.
CC(=O)OC1CC2(C)C(=CC1C1SCCS1)CCC1C2CCC2(C)C(OC(C)=O)CCC12 (stereo not given) = > 100 µM (inactive)
N#CC(C#N)/N=N/c1ccc(-c2nc3ccccc3[nH]2)cc1 = 16.6 µM (inactive)
CCc1ccc2c(c1)CC1(C2)Cc2cc3c(cc2C1)C(=O)CC3 (stereo not given) = 12.1 µM (inactive)
Cc1c(CCCl)c(Cl)n2c(nc3ccccc32)c1C#N = 1.38 µM (inactive)
CCCCCCCCCCC(O)C1CCC(C2CCC(C(O)CCCCC(O)CCCCCC(O)CC3=CC(C)OC3=O)O2)O1 (stereo not given) = > 11.8 µM (inactive)

Sure, the documented GI50 for CN(O)C(=O)Cc1ccc(OCc2cccc(Cl)c2)cc1 is 40.4 µM (inactive)

# compound NCCCNCCCNCCCN ; its GI50 = 12.6 µM (inactive)

Notebook: CCOC(=O)c1cc(I)c(-c2cc(C)no2)n1C , GI50 read as 32.2 µM (inactive)

Memo: CC1OC(O[C@H]2CC[C@]3(C=O)[C@H]4CC[C@]5(C)[C@H](C6=CC(=O)OC6)CC[C@]5(O)[C@@H]4C=C[C@]3(O)C2)CC(O)C1O (stereo not given in full) , reported GI50: 0.524 µM (active)

Entry Cc1cc(O)c(C(C)C)cc1/N=C/c1ccccc1O ; GI50 = 0.36 µM (active)
